# assay: AUC (0 to 24 hrs) in human HT29 cell xenografted CD1 nu/nu mouse at 30 mg/kg, po
# Type: ADME, organism-based, HT-29
# Design: time < 24 hr, dose 30 mg/kg, route oral
# assay.conditions: in vivo
value.kind: AUC(0-t) at 24 h
Put down the number, then write its unit next to it.

Task: Identify measured AUC(0-t) at 24 h associated with COc1cc2nccc(Oc3ccc4c(C(=O)Nc5ccc(Cl)cc5)cccc4c3)c2cc1OC
Result: 48.4 µM·h

###

# assay: Cmax in human HT29 cell xenografted CD1 nu/nu mouse at 10 mg/kg, po
# Format: ADME, organism-based, HT-29
# Parameters: dose 10 mg/kg, route oral
# assay.conditions: in vivo
value.kind: Cmax (nM)
Supply the numeric figure in nM, leaving out any unit text.

Task: For the molecule COc1cc2nccc(Oc3ccc4c(C(=O)Nc5ccc(Cl)cc5)cccc4c3)c2cc1OC , give its measured Cmax value.
Result: 2200

###

# measured.on: Vascular endothelial growth factor receptor 1 (Homo sapiens, UniProt P17948)
# Sequence (P17948 whole entry): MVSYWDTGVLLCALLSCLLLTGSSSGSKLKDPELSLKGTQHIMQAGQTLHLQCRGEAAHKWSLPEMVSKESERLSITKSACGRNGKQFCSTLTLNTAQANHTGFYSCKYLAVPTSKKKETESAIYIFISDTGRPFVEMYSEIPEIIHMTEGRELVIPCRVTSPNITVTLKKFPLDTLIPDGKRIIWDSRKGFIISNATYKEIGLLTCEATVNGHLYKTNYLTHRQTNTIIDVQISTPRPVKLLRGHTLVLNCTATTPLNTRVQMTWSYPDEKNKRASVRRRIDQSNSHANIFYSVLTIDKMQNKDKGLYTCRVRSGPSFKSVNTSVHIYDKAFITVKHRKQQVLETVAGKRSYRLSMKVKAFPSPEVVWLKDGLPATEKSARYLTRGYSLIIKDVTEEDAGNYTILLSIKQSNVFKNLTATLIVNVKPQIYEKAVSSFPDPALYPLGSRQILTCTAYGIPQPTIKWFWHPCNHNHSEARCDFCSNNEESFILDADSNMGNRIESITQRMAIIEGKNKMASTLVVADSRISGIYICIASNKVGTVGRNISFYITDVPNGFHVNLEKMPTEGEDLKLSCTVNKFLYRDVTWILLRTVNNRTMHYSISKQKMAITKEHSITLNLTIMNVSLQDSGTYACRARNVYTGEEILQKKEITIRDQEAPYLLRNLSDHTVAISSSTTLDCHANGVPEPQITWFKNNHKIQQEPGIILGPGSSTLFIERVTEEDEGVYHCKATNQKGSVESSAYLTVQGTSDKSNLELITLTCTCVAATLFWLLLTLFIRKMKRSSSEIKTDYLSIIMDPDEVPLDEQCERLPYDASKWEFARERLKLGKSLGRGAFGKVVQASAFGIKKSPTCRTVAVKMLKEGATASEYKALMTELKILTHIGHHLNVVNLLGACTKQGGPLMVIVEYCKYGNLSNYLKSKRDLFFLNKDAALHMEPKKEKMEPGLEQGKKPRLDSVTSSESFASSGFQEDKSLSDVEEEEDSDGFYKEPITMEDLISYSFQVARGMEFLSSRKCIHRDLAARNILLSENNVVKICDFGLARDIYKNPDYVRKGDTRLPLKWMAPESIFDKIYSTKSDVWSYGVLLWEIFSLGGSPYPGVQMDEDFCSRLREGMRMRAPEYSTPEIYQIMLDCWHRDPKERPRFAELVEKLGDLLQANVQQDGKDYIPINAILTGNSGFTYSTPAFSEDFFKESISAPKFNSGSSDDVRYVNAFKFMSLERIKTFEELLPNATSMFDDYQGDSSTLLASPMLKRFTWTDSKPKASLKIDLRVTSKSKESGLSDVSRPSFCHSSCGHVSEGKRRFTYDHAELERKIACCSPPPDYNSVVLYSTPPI
value.kind: pIC50
Note: pIC50 values are expressed as the negative base-10 logarithm of concentration in M.

Task: Would you please give the reported pIC50 of COc1cc2nccc(Oc3ccc4c(C(=O)Nc5ccc(Cl)cc5)cccc4c3)c2cc1OC with Vascular endothelial growth factor receptor 1 (Homo sapiens, UniProt P17948)?
Result: 9.30

###

# System: HUVEC
# assay: cells
# assay.conditions: Homo sapiens
# Description: Inhibition of VEGF-induced proliferation of HUVEC cells
value.kind: IC50
I'd appreciate it if you included the unit after the number.

COc1cc2nccc(Oc3ccc4c(C(=O)Nc5cc(Cl)cc(Cl)c5)cccc4c3)c2cc1OC 0.028 µM
COc1cc2ncc(F)c(Oc3ccc4c(C(=O)Nc5ccc(Cl)cc5)cccc4c3)c2cc1OC 0.069 µM
COc1cc2nccc(Oc3ccc4c(C(=O)Nc5ccc(C)cc5)cccc4c3)c2cc1OC 0.002 µM
COc1ccc2c(Oc3ccc4c(C(=O)Nc5ccc(Cl)cc5)cccc4c3)ccnc2c1 0.008 µM
CNc1cc(Oc2ccc3c(C(=O)Nc4ccc(Cl)cc4)cccc3c2)ncn1 0.106 µM
COc1cc2nccc(Oc3ccc4c(C(=O)Nc5ccccc5F)cccc4c3)c2cc1OC 0.007 µM

Task: Quick one: give measured IC50 for CNc1cc(Oc2ccc3c(C(=O)Nc4ccc(Cl)cc4)cccc3c2)ccn1
Result: 0.14 µM

Task: Answer with the recorded IC50 of COc1cc2nccc(Oc3ccc4c(C(=O)Nc5cccnc5)cccc4c3)c2cc1OC only.
Result: 0.002 µM

Task: Look up and report measured IC50 for this entry: O=C(Nc1ccc(Cl)cc1)c1cccc2cc(Oc3ncnc4[nH]ccc34)ccc12
Result: 0.037 µM

Task: Answer with the recorded IC50 of COc1cc2nccc(Nc3ccc4c(C(=O)Nc5ccc(Cl)cc5)cccc4c3)c2cc1OC only.
Result: 0.014 µM

Task: Query IC50 for COc1cc2nccc(Oc3ccc4c(C(=O)NC5CCC5)cccc4c3)c2cc1OC
Result: 0.007 µM

Task: Provide one value: measured IC50 of COc1cc2nccc(Oc3ccc4c(C(=O)Nc5ccccn5)cccc4c3)c2cc1OC
Result: 0.002 µM

###

# assay: Cmax in Sprague-Dawley rat at 2 mg/kg, po
# Assay type: ADME, organism-based
# Design: dose 2 mg/kg, route oral
# assay.conditions: in vivo
value.kind: Cmax (ng/mL)
All answers are understood in ng/mL, so give the number only.

Task: Give reported Cmax value for COc1cc2nccc(Oc3ccc4c(C(=O)Nc5ccccn5)cccc4c3)c2cc1OC
Result: 200
